Reference source for all entries: patent US20250161273A1

protocol description: phase 1 study in patients with mild to moderate Parkinson's disease (PK, safety)
Format: in vivo, human
study conditions: human, plasma, oral, 150 mg, PD patients; Regimen A 150 mg single dose on Day 9, fed state; n = 3; read-out: T1/2 (geometric mean) (converted)
measured property: half-life

Challenge: Bench note: what half-life did Brc1cccc(-c2cc(-c3ccc4c(c3)OCO4)n[nH]2)c1 [anle138b] show?
Response given: 15.9 h

###

protocol description: phase 1 first-in-human trial, single ascending dose (SAD) PK
Type: in vivo
study conditions: human, plasma, po, 200 mg, healthy volunteers, fasted; single oral 200 mg; plasma; read-out: Cmax (geometric mean)
measured property: Cmax

Challenge: Please give the measured Cmax for this compound: Brc1cccc(-c2cc(-c3ccc4c(c3)OCO4)n[nH]2)c1 [anle138b]
Response given: ~458 ng/mL
